tested on: control Gram-negative E. coli 25922 strain; assay: Antibacterial activity, microbroth dilution MIC, E. coli 25922; format: cell-based, Escherichia coli; conditions: Escherichia coli; E. coli 25922, microbroth dilution; read-out: MIC, 25922
Entries and their measured MIC follow.
metric name: MIC

INSERT INTO measurements (compound, metric_name, reading) VALUES
  ('CCc1cc(C(=O)O)c(=O)[nH]c1-c1ccc(Nc2ccccc2)cc1', 'MIC', '1 to 3.5 µg/mL'),
  ('CCc1cc(C(=O)O)c(=O)[nH]c1-c1ccc(N2CCC[C@H]2C(=O)O)cc1', 'MIC', '3.5 to 12.5 µg/mL'),
  ('CCc1cc(C(=O)O)c(=O)[nH]c1-c1ccc(N2C[C@H]3C[C@@H](NC)C[C@H]3C2)cc1', 'MIC', '3.5 to 12.5 µg/mL'),
  ('CN(C)c1ccc(-c2[nH]c(=O)c(C(=O)O)c(O)c2Cc2ccccc2)cc1', 'MIC', '12.5 to 150 µg/mL'),
  ('COCc1c(-c2ccc(N(C)C)cc2)[nH]c(=O)c(C(=O)O)c1O', 'MIC', '12.5 to 150 µg/mL'),
  ('CCc1c(-c2ccc(N3C[C@H]4CCC[C@@H](N)[C@H]4C3)cc2)[nH]c(=O)c(C(=O)O)c1O.O=C(O)C(F)(F)F', 'MIC', '1 to 3.5 µg/mL'),
  ('CCc1cc(C(=O)O)c(=O)[nH]c1-c1ccc(N2CCC(N(C)C)C2)cc1 (centres unmarked)', 'MIC', '1 to 3.5 µg/mL'),
  ('O=C(O)c1cc(C(=O)O)c(=O)[nH]c1-c1ccc(F)cc1', 'MIC', '12.5 to 150 µg/mL');
